Source: a melting point compilation (Tetko et al.; mined from patent text by program, amines drawn as free bases though some values may be those of a salt)

Listing of recorded melting point by entry.

# count of solved cases: 5
- molecule: "COC(=O)c1c(C)nn2c(-c3cccc(C(F)(F)F)c3)ccnc12"
  melting point: "177 to 179 °C"
- molecule: "N[C@@H]1C(=O)Nc2ccccc2-c2ccccc21"
  melting point: "> 225 °C"
- molecule: "Cc1nnc(NCCN2CCN(c3ncccn3)CC2)c2cc3ccccn3c12"
  melting point: "280 to 283 °C"
- molecule: "CC(C)(C)S(=O)(=O)NCc1cc(-c2ccc(Cl)c(Cl)c2)n(Cc2ccc(Cl)c(Cl)c2)n1"
  melting point: "127 °C"
- molecule: "CC1CC1C(=O)Nc1ccc(-n2nc(C(F)(F)F)cc2C(F)(F)F)cc1 (stereo unspecified)"
  melting point: "172 to 173 °C"

For NC(=O)CNC(=O)c1cccc(-c2cccc3sc(Cc4cccc(C(F)(F)F)c4)nc23)c1 , what is its reported melting point?
130 to 131 °C

What do you have for COc1cc(OCc2nccs2)ccc1/C=C/c1cc(/C=C/c2ccc3cc[nH]c3c2)n[nH]1 ?
229 to 237 °C

What do you have for Cc1cc2nc3c(nc2cc1[N+](=O)[O-])SC(=C(C#N)C#N)S3 ?
283 to 284 °C

What do you have for C[C@]1(O)CCCC[C@H]1n1cnc(C(=O)N2CCNC[C@H]2Cc2ccccc2)c1-c1ccccc1 ?
191 °C

What do you have for CC(C)(C)OC(=O)N1CCN(c2ccc(O)c(C=O)c2)CC1 ?
84 to 86 °C

---

Listing of recorded melting point by entry.

# count of solved cases: 8
- compound: "O=C(Nc1cccc(-c2cccc(-n3c(=O)c(Cc4cccnc4)nc4cccnc43)c2)c1)C(F)(F)F"
  result: "138 to 144 °C"
- compound: "Oc1ccc(-c2nc3ccc(O)cc3o2)c(O)c1"
  result: "293 to 296 °C"
- compound: "CCOCCn1c(COc2ccc(CO)cc2)nc2ccccc21"
  result: "90 to 92 °C"
- compound: "CC(C)c1nc(CO)n(Cc2ccc(=O)[nH]c2)c1Sc1cc(Cl)cc(Cl)c1"
  result: "220 °C"
- compound: "O=C(F)N(SN1CCOCC1)c1ccccc1"
  result: "71 to 72 °C"
- compound: "CCc1cc2c(SCc3ccccc3)ncnc2s1"
  result: "54 to 60 °C"
- compound: "CS(=O)C=C1C(C)(C)CCC1(C)C (stereo not given)"
  result: "74.7 °C"
- compound: "COC(=O)CCC#Cc1cc(Cl)ccc1NS(=O)(=O)c1ccc2c(c1)CCN2C(C)=O"
  result: "154 °C"

For CC(Oc1cccc(-c2ccc(Cl)c(C(=O)NCC34CC5CC(CC(C5)C3)C4)c2)c1)C(=O)O (stereo not given) , what is its reported melting point?
115 to 120 °C

What do you have for COc1sc(S(=O)(=O)C[N+](=O)[O-])cc1Br ?
120 to 121 °C

---

Listing of recorded melting point by entry.

# count of solved cases: 3
- molecule: "CCn1nc(-c2ccccc2)c(C(C)=O)c(Nc2ccc(Br)c3cccnc23)c1=O"
  melting point: "148 to 149 °C"
- molecule: "O=C1c2ccccc2C(=O)N1CC(=O)N1c2ccccc2N(Cc2ccccc2)C(=O)C(Cc2ccccc2)C1C(F)(F)F (centres undefined)"
  melting point: "262 to 263 °C"
- molecule: "CC(C)Nc1cccnc1N1CCN(C(=O)c2ccc(C(=O)N3CCOCC3)cc2)CC1"
  melting point: "139 °C"

For Cc1c(CC(=O)OCCCCO)cc(-c2ccc(S(C)(=O)=O)cc2)n1-c1ccc(F)cc1 , what is its reported melting point?
149 to 151 °C

---

Listing of recorded melting point by entry.

# count of solved cases: 3
- compound: "O=C(O)c1cnn2c(C(F)(F)F)cc(-c3ccc(C(F)(F)F)c(F)c3)nc12"
  assayEndpoint: "melting point"
  result: "212 °C"
- compound: "O=C(Nc1ncco1)C1c2ccccc2Sc2ccccc21"
  assayEndpoint: "melting point"
  result: "188 to 191 °C"
- compound: "CC(C)c1cccc(C(C)C)c1NC(=O)Cc1ccccc1NCCc1ccccc1"
  assayEndpoint: "melting point"
  result: "120 to 123 °C"

Turning to the following compound.
For CC(=O)SCC(Cc1ccccc1)C(=O)Nc1cc2ccccc2cc1C(=O)O (stereo unspecified) , what is its reported melting point?
138 to 141 °C

---

Listing of recorded melting point by entry.

- compound: "CCCNC(=O)c1cc2ccc(OC)cc2n1CCNC(C)=O"
  result: "127 to 128 °C"
- compound: "Nc1nc2ccc(Cl)nc2c(=O)[nH]1"
  result: "> 330 °C"

For COC(=O)c1n[nH]c(C(C)C)c1[N+](=O)[O-] , what is its reported melting point?
78 to 80 °C

What do you have for CC(Br)=C(c1ccccc1)c1ccccc1 ?
46 to 47 °C

What do you have for CCCCC(Cc1ccc(OCCCNC(=O)c2ccc(-c3ccccn3)cc2)cc1)C(=O)O (stereo not given) ?
151 to 152 °C

What do you have for CC1(C)CC(N(CCCCO)S(C)(=O)=O)c2cc(OCc3ccccc3)ccc2O1 (stereo not given) ?
113 to 115 °C

What do you have for Cc1cnc(C(=O)c2[nH]c3cc(Cl)ccc3c2CC(=O)O)s1 ?
225 to 226 °C

---

Listing of recorded melting point by entry.

# count of solved cases: 6
- compound: "COc1ccc2c(c1OC)C(=O)c1c-2c(N2CCNCC2)nc2ccc(Cl)cc12"
  melting point: "168 to 169 °C"
- compound: "C=CCN(CC=C)c1ccc2[nH]c3cnc(C(=O)OCC)nc3c2c1"
  melting point: "188 to 190 °C"
- compound: "C#CCCN1CCC(O)(Cc2ccccc2)CC1"
  melting point: "51 to 53 °C"
- compound: "CCCNC1Cc2cccc3[nH]c(=O)n(c23)C1 (stereo not given)"
  melting point: "> 300 °C"
- compound: "CC(C)(C)c1cc2c(c(C(C)(C)C)c1O)CCS2"
  melting point: "82 °C"
- compound: "COCCNCCC(=O)Nc1nc(-c2ccccc2)c(-c2ccc(=O)n(C(C)C)n2)s1"
  melting point: "167 to 168 °C"

For COC(=O)c1cccc(NC(=O)[C@H](Cc2ccccc2)NC(=O)OC(C)(C)C)c1 , what is its reported melting point?
62 to 66 °C

What do you have for Cc1nc(-c2ccc(OCc3cccnc3)cc2)no1 ?
55 to 56 °C

What do you have for C=C1CCN(S(=O)(=O)c2ccc(Cl)c(C(=O)O)c2)CC1 ?
157 to 160 °C

What do you have for CC(C)(C)c1ccc(Oc2nc(Nc3cccc(C(=O)O)c3)nc(Oc3ccccc3)n2)cc1 ?
245 to 247 °C

---

Listing of recorded melting point by entry.

- molecule: "Cc1cc(I)c(C(N)=O)cc1C"
  melting point: "195 to 197 °C"
- molecule: "CC1(C)OC(=O)C(Oc2ccc(Cl)nc2)=C1c1ccc(S(C)(=O)=O)cc1"
  melting point: "196 to 197 °C"
- molecule: "O=C1NC(=O)c2cc(C(c3ccc4c(c3)C(=O)NC4=O)(C(F)(F)F)C(F)(F)F)ccc21"
  melting point: "322 °C"
- molecule: "C#CCn1cc(Cc2ccc(C(=O)OC)cc2OC)c2cc(NC(=O)CC3CCCC3)ccc21"
  melting point: "160 to 161 °C"
- molecule: "CN(C)c1ccccc1CS(=O)c1nc2c(n1-c1ccccn1)CCC2 (stereo not drawn)"
  melting point: "140 to 141 °C"
- molecule: "CC(C)(C)c1cc2oc(-c3ccc(S(N)(=O)=O)cc3)c(-c3ccc(F)cc3)n2n1"
  melting point: "196 to 200 °C"

For O=C(NCCO[N+](=O)[O-])c1cscn1 , what is its reported melting point?
105 to 108 °C

What do you have for COc1nc2ccc(Cl)cc2nc1Cl ?
113 to 114 °C

What do you have for COc1ccc2c(c1)/C(=C/CNC(C)=O)CCC2 ?
92 to 94 °C

What do you have for CCOC(=O)N(c1ccc(Cl)cc1)c1ccccc1N=NC(NC(=O)CCl)(C(=O)OCC)C(=O)OCC ?
80 to 85 °C

What do you have for CCCN(C(=O)CC)c1c(C#N)cnn1-c1ccc(OC(F)(F)F)cc1Cl ?
83 °C

What do you have for Nc1nonc1-c1nc2ccccc2n1CC(=O)C=Cc1ccccc1 ?
176 to 180 °C

What do you have for CCOC(=O)C1=C(C)N=C(SCc2ccc(OC)cc2)N(C(=O)OCC)C1c1cccc(OC)c1 (stereo not drawn) ?
79 to 81 °C

What do you have for Fc1ccc(C(c2ccc(F)cc2)N2CCN(CCCSc3ncnc4nc[nH]c34)CC2)cc1 ?
90 to 93 °C

What do you have for COc1cccc(CCC(=O)O)c1C ?
143 to 147 °C

What do you have for COc1ccc(C(=O)Nc2ccc(C(=O)N3CCCC3)cc2)cc1C12CC3CC(CC(C3)C1)C2 ?
239 to 242 °C

What do you have for CC1(CN2CCN(C(=O)Cc3ccc(Cl)c(Cl)c3)CC2)Cn2cc([N+](=O)[O-])nc2O1 (stereo not drawn) ?
189 to 191 °C

What do you have for CC(C)(C)c1ccc2[nH]c(=O)c(-c3nnn[nH]3)cc2c1 ?
280 to 286 °C

What do you have for CCn1c(C)c(C(=O)c2ccc(N)cc2C(=O)O)c2ccccc21 ?
187 to 189 °C

What do you have for COc1ccc(CSc2ccc([N+](=O)[O-])cc2CNCCc2ccccc2)cc1 ?
80 to 85 °C

What do you have for CCc1sc2nc(C(=O)OC)cn2c1C ?
94 to 95 °C

What do you have for Cc1ccc(F)cc1C(=O)Nc1ccc(C(=O)N2Cc3cccn3-c3ncccc32)cn1 ?
226 to 234 °C

What do you have for Oc1csc(Cc2n[nH]c3ccccc23)c1 ?
189 to 190 °C

What do you have for Cc1nc(Cl)c2c(n1)CN=C(c1ccccc1)c1cc(Cl)ccc1-2 ?
190 to 192 °C

What do you have for COC(=O)[C@H](CSSC[C@H](NC(=O)[C@@H]1CCC(=O)N1)C(=O)OC)NC(=O)[C@@H]1CCC(=O)N1 ?
160 to 162 °C

What do you have for COc1cc(OC)c2[nH]c3c(C(=O)Nc4ccc(CCN(C)Cc5ccc(OC)c(OC)c5)cc4)cccc3c(=O)c2c1 ?
> 260 °C

What do you have for C[C@H](C/C=C/C=C/C(C)(C)O)[C@H]1CC[C@H]2[C@@H](O)CCC[C@]12C ?
110 to 112 °C
